Experiment: Clearance in CD rat at […], iv and 5 mg/kg, po
Type: ADME, organism-based
Conditions: in vivo
ASSAY ENDPOINT: clearance (mL/min/kg)
Write the number in mL/min/kg without appending the unit.

Req: Reported clearance for `Cc1cc(CNC(=O)c2cc(-c3ccc(C(C)(C)C)cc3)n(C)n2)ccc1OC(C)(C)C(=O)O` : what is it?
Resp: 17

----------
Molecular target: Peroxisome proliferator-activated receptor delta (Homo sapiens, UniProt Q03181)
Sequence (Q03181 whole entry): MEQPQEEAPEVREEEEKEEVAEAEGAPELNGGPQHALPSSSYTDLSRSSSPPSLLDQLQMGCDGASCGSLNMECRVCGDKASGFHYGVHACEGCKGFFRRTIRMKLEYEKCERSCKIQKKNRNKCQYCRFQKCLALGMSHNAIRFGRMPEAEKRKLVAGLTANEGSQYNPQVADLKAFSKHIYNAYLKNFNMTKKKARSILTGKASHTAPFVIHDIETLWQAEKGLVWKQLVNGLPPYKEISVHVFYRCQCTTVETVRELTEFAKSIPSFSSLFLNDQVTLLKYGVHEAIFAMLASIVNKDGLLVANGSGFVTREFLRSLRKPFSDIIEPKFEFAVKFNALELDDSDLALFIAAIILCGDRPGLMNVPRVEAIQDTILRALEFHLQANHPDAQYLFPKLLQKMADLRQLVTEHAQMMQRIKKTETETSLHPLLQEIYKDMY
ASSAY ENDPOINT: EC50 (µM)
Could you give me the number in µM? Just the number is fine.

Req: Could you tell me which EC50 is on file for `Cn1nc(-c2ccc(C(C)(C)C)cc2)cc1C(=O)NCc1ccc(OC(C)(C)C(=O)O)cc1` ?
Resp: 10

----------
Quick record of EC50 values for Peroxisome proliferator-activated receptor delta (Homo sapiens, UniProt Q03181).
// units = µM; emit number, no label

Recorded EC50, per entry:
>>> numeric_result("Cc1cc(CNC(=O)c2cc(-c3ccc(C(C)C)cc3)n(C)n2)ccc1OC(C)(C)C(=O)O")
4.85
>>> numeric_result("Cc1cc(CNC(=O)c2cc(-c3ccc(CC(C)C)cc3)nn2C)ccc1OC(C)(C)C(=O)O")
2.87

Req: What value of EC50 on Peroxisome proliferator-activated receptor delta (Homo sapiens, UniProt Q03181) does `Cc1cc(CNC(=O)c2cc(-c3ccc(C(C)(C)C)cc3)n(Cc3ccccc3)n2)ccc1OC(C)(C)C(=O)O` have?
Resp: 25

----------
Reported values: EC50 for Peroxisome proliferator-activated receptor delta (Mus musculus, UniProt P35396), one per item.

In the examples that follow, each entry is paired with its recorded EC50.
>>> result("Cc1cc(CNC(=O)c2cc(-c3ccc(-c4ccccc4C)cc3)n(C)n2)ccc1OC(C)(C)C(=O)O")
"> 25 µM"
>>> result("Cc1cc(CNC(=O)c2cc(-c3ccc(C(C)(C)C)cc3)n(C)n2)ccc1OC(C)(C)C(=O)O")
"> 25 µM"
>>> result("CCn1nc(C(=O)NCc2ccc(OC(C)(C)C(=O)O)c(C)c2)cc1-c1ccc(C(C)(C)C)cc1")
"> 25 µM"
>>> result("C=CCn1nc(C(=O)NCc2ccc(OC(C)(C)C(=O)O)c(C)c2)cc1-c1ccc(C(C)(C)C)cc1")
"> 25 µM"

Turning now to a further compound:
Req: Lab note: need EC50 with Peroxisome proliferator-activated receptor delta (Mus musculus, UniProt P35396) for entry `Cc1cc(CNC(=O)c2cc(-c3ccc(C(C)C)cc3)n(C)n2)ccc1OC(C)(C)C(=O)O` , please look it up.
Sequence (P35396 whole entry): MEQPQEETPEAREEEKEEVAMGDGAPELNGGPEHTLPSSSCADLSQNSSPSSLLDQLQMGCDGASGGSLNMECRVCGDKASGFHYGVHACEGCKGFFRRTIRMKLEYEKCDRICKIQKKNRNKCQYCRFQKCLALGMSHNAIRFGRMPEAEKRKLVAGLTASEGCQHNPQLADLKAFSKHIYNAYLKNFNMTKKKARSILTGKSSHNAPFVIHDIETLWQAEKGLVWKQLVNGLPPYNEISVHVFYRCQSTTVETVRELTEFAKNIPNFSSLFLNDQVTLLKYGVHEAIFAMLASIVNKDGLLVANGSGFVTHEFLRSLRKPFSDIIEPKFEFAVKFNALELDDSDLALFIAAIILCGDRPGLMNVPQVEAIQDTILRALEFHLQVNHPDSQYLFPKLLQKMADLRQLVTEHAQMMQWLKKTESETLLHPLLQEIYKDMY
Resp: 7.1 µM

----------
Let's go through some pEC50 measurements on Peroxisome proliferator-activated receptor gamma (Mus musculus, UniProt P37238) together.
Sequence (P37238 whole entry): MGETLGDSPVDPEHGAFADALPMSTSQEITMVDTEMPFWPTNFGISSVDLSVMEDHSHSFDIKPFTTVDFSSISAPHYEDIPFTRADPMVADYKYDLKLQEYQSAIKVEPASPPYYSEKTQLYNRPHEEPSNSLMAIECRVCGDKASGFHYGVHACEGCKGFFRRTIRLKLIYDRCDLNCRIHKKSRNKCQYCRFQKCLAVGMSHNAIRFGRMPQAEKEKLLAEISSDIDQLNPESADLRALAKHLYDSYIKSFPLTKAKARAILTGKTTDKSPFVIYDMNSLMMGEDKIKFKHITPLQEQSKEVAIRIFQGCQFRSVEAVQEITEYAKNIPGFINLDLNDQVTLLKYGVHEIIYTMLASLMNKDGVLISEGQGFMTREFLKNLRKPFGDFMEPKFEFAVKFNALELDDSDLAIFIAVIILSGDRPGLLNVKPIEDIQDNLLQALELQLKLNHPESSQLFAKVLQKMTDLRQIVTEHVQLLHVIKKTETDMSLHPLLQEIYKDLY
Field pEC50 (float): negative decimal logarithm of the concentration in molar.

>>> numeric_result("CCn1nc(C(=O)NCc2ccc(OC(C)(C)C(=O)O)c(C)c2)cc1-c1ccc(C(C)(C)C)cc1")
7.44
>>> numeric_result("Cc1cc(CNC(=O)c2cc(-c3ccc(-c4ccccc4C)cc3)n(C)n2)ccc1OC(C)(C)C(=O)O")
7.22
>>> numeric_result("Cc1cc(CNC(=O)c2cc(-c3ccc(C(C)C)cc3)n(C)n2)ccc1OC(C)(C)C(=O)O")
7.80
>>> numeric_result("C=CCn1nc(C(=O)NCc2ccc(OC(C)(C)C(=O)O)c(C)c2)cc1-c1ccc(C(C)(C)C)cc1")
6.82

Req: Field request: pEC50 | item: `Cc1cc(CNC(=O)c2cc(-c3ccc(C(C)(C)C)cc3)n(C)n2)ccc1OC(C)(C)C(=O)O`
Resp: 7.96
